Measured values drawn from patent US20090176804A1 for this set.

Recorded IC50, one value per entry.
- measurement target: DP receptor (Homo sapiens, UniProt Q13258)
- Construct: the human cell line LS174T, which expresses the endogenous DP receptor; endogenous in cells
- Sequence (Q13258 whole entry): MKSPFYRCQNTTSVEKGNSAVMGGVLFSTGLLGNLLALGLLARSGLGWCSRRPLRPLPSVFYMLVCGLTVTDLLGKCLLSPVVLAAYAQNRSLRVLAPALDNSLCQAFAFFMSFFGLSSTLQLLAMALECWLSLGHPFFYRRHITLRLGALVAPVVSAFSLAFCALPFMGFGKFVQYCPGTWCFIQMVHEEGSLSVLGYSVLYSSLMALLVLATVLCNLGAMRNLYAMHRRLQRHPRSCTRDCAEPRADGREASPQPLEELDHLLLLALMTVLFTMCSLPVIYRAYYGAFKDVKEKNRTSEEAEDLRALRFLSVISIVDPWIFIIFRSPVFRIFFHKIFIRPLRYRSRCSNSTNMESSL
- protocol details: SPA cAMP assay in human LS174 T cells (human DP functional assay)
- measurement setup: concentration of the compound producing 50% inhibition in the SPA cAMP assay in human LS174 T cells; PGD2 15 nM final
- Protocol: […] The inhibitory effects of the compounds according to the invention are assessed in a human DP functional assay. […]
Numeric only. Scale: nM

sample smiles	IC50 / nM
COc1ccccc1CCNS(=O)(=O)c1cc(-c2[nH]c3ccccc3c2CC(=O)O)ccc1Cl	3.8
O=C(Cc1c(-c2ccc(Cl)c(S(=O)(=O)NC3CCCCC3)c2)[nH]c2ccccc12)Nc1nnn[nH]1	15
COc1ccc(CCNS(=O)(=O)c2cc(-c3[nH]c4ccccc4c3CC(=O)O)ccc2Cl)cc1	3

Now consider a different compound.
[in] Using the record for O=C(O)Cc1c(-c2ccc(Cl)c(S(=O)(=O)NCCc3ccccc3OC(F)(F)F)c2)[nH]c2ccccc12 , report its IC50.
[out] 20
